As shown below, each of these compounds has a reported ER, enhancement ratio value.
system: porcine skin; test: In vitro permeation experiment, Franz-type diffusion cells; details: permeant DF; flux with/without 1% enhancer
Lab note: record the figure alone, no unit after it.

Recorded ER, enhancement ratio, per entry:
[[record]]
compound = "CCCCCCCCCCCCCCCCCCN1CC(CO)OC(OC)C1 (stereo not shown) [Mo18]"
target_entity = "porcine skin"
measured_result = 1.14

[[record]]
compound = "CCCCCCCCCCCCCCN1CC(CO)OC(OC)C1 (stereo not shown) [Mo14]"
target_entity = "porcine skin"
measured_result = 2.58

[[record]]
compound = "CCCCN1CC(CO)OC(OC)C1 (stereo not shown) [Mo4]"
target_entity = "porcine skin"
measured_result = 1.04

[[record]]
compound = "CCCCCCCCCCN1CC(CO)OC(OC)C1 (stereo not shown) [Mo10]"
target_entity = "porcine skin"
measured_result = 1.43


Please look up its ER, enhancement ratio: CCCCCCCCCCCCN1CC(CO)OC(OC)C1 (stereo not shown) [Mo12] 1.81

Please look up its ER, enhancement ratio: CCCCCCCCN1CC(CO)OC(OC)C1 (stereo not shown) [Mo8] 1.17

Please look up its ER, enhancement ratio: CCCCCCCCC=CCCCCCCCCN1CC(CO)OC(OC)C1 (stereo not shown) [Mo18/1] 1.94

----------
test system: porcine skin; assay: In vitro permeation experiment, Franz-type diffusion cells; conditions: permeant IND; flux with/without 1% enhancer
Lab note: anything with ER, enhancement ratio below 6 is marked T; values at 6 or higher are marked F.

Observe how each entry below is paired with its result.
[[record]]
molecule = "CCCCCCCCN1CC(CO)OC(OC)C1 (stereo not shown)"
class_label = "F"

[[record]]
molecule = "CCCCCCCCCCCCCCCCCCN1CC(CO)OC(OC)C1 (stereo not shown)"
class_label = "T"


Determine if CCCCN1CC(CO)OC(OC)C1 (stereo not shown) shows ER, enhancement ratio strictly lower than 6. T

Determine if CCCCCCCCCCN1CC(CO)OC(OC)C1 (stereo not shown) shows ER, enhancement ratio strictly lower than 6. F

Determine if CCCCCCCCC=CCCCCCCCCN1CC(CO)OC(OC)C1 (stereo not shown) shows ER, enhancement ratio strictly lower than 6. T

Determine if CCCCCCCCCCCCCCN1CC(CO)OC(OC)C1 (stereo not shown) shows ER, enhancement ratio strictly lower than 6. F

Determine if CCCCCCCCCCCCN1CC(CO)OC(OC)C1 (stereo not shown) shows ER, enhancement ratio strictly lower than 6. F

----------
As shown below, each of these compounds has a reported vasCH2, position of asymmetric CH2 stretching vibration value.
system: porcine skin; experiment: ATR-FTIR of enhancer-treated skin; settings: skin treated 24 h with 1% enhancer in 60% PG
Unit cm⁻¹ implied. Number only.

Recorded vasCH2, position of asymmetric CH2 stretching vibration, per entry:
[[record]]
compound = "CCCCCCCCCCCCN1CC(CO)OC(OC)C1 (centres unmarked) [Mo12]"
target_entity = "porcine skin"
measured_result = 2921.14

[[record]]
compound = "CCCCCCCCCCCCCCN1CC(CO)OC(OC)C1 (centres unmarked) [Mo14]"
target_entity = "porcine skin"
measured_result = 2919.48

[[record]]
compound = "CCCCCCCCCCCCN1CCCCCC1=O [Azone, N-dodecylazacykloheptan-2-on, reference compound]"
target_entity = "porcine skin"
measured_result = 2921.84

[[record]]
compound = "CCCCCCCCCCN1CC(CO)OC(OC)C1 (centres unmarked) [Mo10]"
target_entity = "porcine skin"
measured_result = 2921.91


Consider the additional compound presented here.
Form: Entry = CCCCCCCCC=CCCCCCCCCN1CC(CO)OC(OC)C1 (centres unmarked) [Mo18/1] | System = porcine skin | vasCH2, position of asymmetric CH2 stretching vibration = ____ 2920.35
